- Target Of Assay: His-tagged BRD4 BD2 (333-460) (Homo sapiens, UniProt O60885)
- Construct: The same assay was developed for His-tagged BRD4 BD2 (333-460) and biotinylated histone H4K5/8/12/16(Ac) peptide
- Assay Info: AlphaLISA competition assay, BRD4 BD2
- Condition Notes: BRD4-BD2, AlphaLISA competition with biotinylated histone H4K5/8/12/16(Ac) peptide, 20 nM
The compounds listed here are annotated with their IC50.

Some compounds with recorded IC50:
Compound | IC50
CCS(=O)(=O)Nc1ccc(Oc2cccc(OCCN3CCN(CCN4CCN(c5ncc(Cl)c(Nc6ccc7c(c6)cc(OCC(=O)NC)c(=O)n7C)n5)CC4)CC3)c2)c(-c2cn(C)c(=O)c3[nH]ccc23)c1 | < 5 nM
CNC(=O)COc1cc2cc(Nc3nc(N4CCN(CCN5CCN(Cc6cccc(Oc7ccc(C(C)(C)O)cc7-c7cn(C)c(=O)c8[nH]ccc78)c6)CC5)CC4)ncc3Cl)ccc2n(C)c1=O | < 5 nM
CCS(=O)(=O)Nc1ccc(Oc2cccc(CCN3CCN(CC4CCN(c5ncc(Cl)c(Nc6ccc7c(c6)cc(OCC(=O)NC)c(=O)n7C)n5)CC4)CC3)c2)c(-c2cn(C)c(=O)c3[nH]ccc23)c1 | 5 to 50 nM
CNC(=O)COc1cc2cc(Nc3nc(N4CCC(CC5CN(CC6CC(Oc7ccc(C(C)(C)O)cc7-c7cn(C)c(=O)c8[nH]ccc78)C6)C5)CC4)ncc3Cl)ccc2n(C)c1=O (stereo not drawn) | < 5 nM

Now for the compound whose IC50 we want.
Request the reported IC50 associated with CCS(=O)(=O)Nc1ccc(Oc2ccc(OCCN3CCN(CCCC4CCN(c5ncc(Cl)c(Nc6ccc7c(c6)cc(OCC(=O)NC)c(=O)n7C)n5)CC4)CC3)cc2)c(-c2cn(C)c(=O)c3[nH]ccc23)c1
5 to 50 nM

====

- Target Of Assay: His-tagged BRD4 BD2 (333-460) (Homo sapiens)
- Construct: The same assay was developed for His-tagged BRD4 BD2 (333-460) and biotinylated histone H4K5/8/12/16(Ac) peptide
- Assay Info: AlphaLISA competition assay, BRD4 BD2
- Condition Notes: BRD4-BD2, AlphaLISA competition with biotinylated histone H4K5/8/12/16(Ac) peptide, 20 nM
pIC50: −log10 of the molar value.
Value Type: pIC50

Use these answered entries as a reference point.
Smiles Code | Value Type | Result
CNC(=O)COc1cc2cc(Nc3nc(N4CCC(N5CCN(Cc6ccc(Oc7ccc(C(C)(C)O)cc7-c7cn(C)c(=O)c8[nH]ccc78)cc6)CC5)CC4)ncc3Cl)ccc2n(C)c1=O | pIC50 | > 8.30
CNC(=O)COc1cc2cc(Nc3nc(N4CCCC5(CN(C[C@H]6C[C@@H](Oc7ccc(C(C)(C)O)cc7-c7cn(C)c(=O)c8[nH]ccc78)C6)C5)C4)ncc3Cl)ccc2n(C)c1=O | pIC50 | < 6.30
CCS(=O)(=O)Nc1ccc(Oc2ccc(CCN3CCN(CC4CCN(c5ncc(Cl)c(Nc6ccc7c(c6)cc(OCC(=O)NC)c(=O)n7C)n5)CC4)CC3)cc2)c(-c2cn(C)c(=O)c3[nH]ccc23)c1 | pIC50 | > 8.30
CCS(=O)(=O)Nc1ccc(Oc2cccc(OCCN3CCN(CCC4CCN(c5ncc(Cl)c(Nc6ccc7c(c6)cc(OCC(=O)NC)c(=O)n7C)n5)CC4)CC3)c2)c(-c2cn(C)c(=O)c3[nH]ccc23)c1 | pIC50 | 7.30 to 8.30

Let us examine a further case.
So what does the record say about pIC50 for CNC(=O)COc1cc2cc(Nc3nc(N4CCN(CCN5CCN(CCOc6cccc(Oc7ccc(C(C)(C)O)cc7-c7cn(C)c(=O)c8[nH]ccc78)c6)CC5)CC4)ncc3Cl)ccc2n(C)c1=O ?
> 8.30
